# studySystem: VIPR2 (Homo sapiens)
# Sequence (P41587 24-438): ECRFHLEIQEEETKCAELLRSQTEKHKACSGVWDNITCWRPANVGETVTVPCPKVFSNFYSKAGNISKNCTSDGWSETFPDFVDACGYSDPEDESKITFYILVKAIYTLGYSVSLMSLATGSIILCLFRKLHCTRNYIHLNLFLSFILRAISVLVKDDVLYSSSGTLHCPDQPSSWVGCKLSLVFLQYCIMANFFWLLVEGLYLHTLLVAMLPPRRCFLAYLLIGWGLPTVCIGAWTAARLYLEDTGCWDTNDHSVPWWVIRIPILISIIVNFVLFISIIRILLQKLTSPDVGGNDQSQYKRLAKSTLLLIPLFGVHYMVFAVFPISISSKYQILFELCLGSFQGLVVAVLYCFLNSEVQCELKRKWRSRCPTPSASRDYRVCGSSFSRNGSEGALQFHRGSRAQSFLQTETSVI
# experimentalDetails: Inhibition of VIP-induced cAMP elevation (% Activity cAMP)
# Type: cell-based
# Parameters: expressed in transfected cells; host or cells: HEK293 cells transfected with VIPR2 in pCDNA3.1 (as described)
# conditions: 5 μM, Batch 1

{"recordSmiles": "O=C(NC[C@@H](O)C[C@@H](Cc1ccccc1)C(=O)N[C@H]1c2ccccc2C[C@H]1O)c1cccnc1", "inhibition at 5 µM": "16.4%"}
{"recordSmiles": "O=C(NC[C@@H](O)C[C@@H](Cc1ccccc1)C(=O)N[C@H]1c2ccccc2C[C@H]1O)C(Cl)Cl", "inhibition at 5 µM": "19.6%"}
{"recordSmiles": "C=Cc1ccc(C(=O)NC[C@@H](O)C[C@@H](Cc2ccccc2)C(=O)N[C@H]2c3ccccc3C[C@H]2O)cc1", "inhibition at 5 µM": "23.8%"}
{"recordSmiles": "O=C(CCN1C(=O)C=CC1=O)NC[C@@H](O)C[C@@H](Cc1ccccc1)C(=O)N[C@H]1c2ccccc2C[C@H]1O", "inhibition at 5 µM": "18.6%"}
{"recordSmiles": "O=C(NC[C@@H](O)C[C@@H](Cc1ccccc1)C(=O)N[C@H]1c2ccccc2C[C@H]1O)c1ccccc1[N+](=O)[O-]", "inhibition at 5 µM": "9.1%"}
{"recordSmiles": "CC(C)(C)c1ccc(C(=O)NC[C@@H](O)C[C@@H](Cc2ccccc2)C(=O)N[C@H]2c3ccccc3C[C@H]2O)cc1", "inhibition at 5 µM": "23.2%"}
